# ASSAY INFO: Cytotoxicity against human SH-SY5Y cells assessed as cell viability at 1 uM measured after 48 hrs by MTT assay relative to control
# Type: cell-based
# SETTINGS: read-out: Activity
// reported viability at 48 h, 1 µM for each item listed
The response must be a number in % with no trailing unit.

O=C(NCCCCCCCn1cc(-c2cccnc2)nn1)c1ccccc1-n1cc(CN2CCC(O)CC2)nn1    91.7
O=C(NCCCCCCCn1cc(-c2ccc[n+]([O-])c2)nn1)c1ccccc1-c1ccccc1    103

Query: Item `O=C(NCCCCCCCn1cc(-c2cccnc2)nn1)c1ccccc1-n1cc(CN2CCCCC2)nn1` : provide viability at 48 h, 1 µM
Response: 15.9

Query: Item `O=C(/C=C/c1cccnc1)NCCCCC1CCN(C(=O)c2ccccc2)CC1` : provide viability at 48 h, 1 µM
Response: 9.7

Query: Item `O=C(NCCCCCCCn1cc(-c2cccnc2)nn1)c1ccccc1-n1cc(CN2CCOCC2)nn1` : provide viability at 48 h, 1 µM
Response: 30

Query: Item `CCOC(=O)C1CCN(Cc2cn(-c3ccccc3C(=O)NCCCCCCCn3cc(-c4cccnc4)nn3)nn2)CC1` : provide viability at 48 h, 1 µM
Response: 14.1
